# Tested on: SW-620
# PROTOCOL_DETAILS: NCI tumour cell line growth inhibition, 48 h
The source made the active and inactive calls. Rule as the data show it: active = GI50 up to about 1.1 µM and inactive = higher.
MEASUREMENT_TYPE: GI50

[
  {
    "COMPOUND": "O=C(Nc1cnc(O)nc1O)C(Cl)Cl",
    "MEAS_VALUE": "> 100 µM (inactive)"
  },
  {
    "COMPOUND": "O=NN(CCCl)C(=O)NCCCl",
    "MEAS_VALUE": "52.2 µM (inactive)"
  },
  {
    "COMPOUND": "O=C1Nc2ccccc2C12CCNC2Cc1ccccc1 (stereo unspecified)",
    "MEAS_VALUE": "> 100 µM (inactive)"
  },
  {
    "COMPOUND": "CCCC(CCC(=O)O)(CCC(=O)O)[N+](=O)[O-]",
    "MEAS_VALUE": "> 100 µM (inactive)"
  },
  {
    "COMPOUND": "COc1ccc(/C=C2/N/C(=N\\N=C/C(O)C(O)C(O)C(O)CO)NC2=O)cc1 (stereo unspecified)",
    "MEAS_VALUE": "> 100 µM (inactive)"
  }
]

Next:
INPUT: Could you share which GI50 value was measured for CN(C)c1ccc(/C=N/c2ccc(-c3nc4ccccc4o3)cc2)cc1 ?
OUTPUT: 86.3 µM (inactive)

====

# Tested on: SNB-78
# PROTOCOL_DETAILS: NCI tumour cell line growth inhibition, 48 h
Active and inactive are the calls of the source. Rule as the data show it: active = GI50 up to about 1.1 µM and inactive = higher.
MEASUREMENT_TYPE: GI50

# example entries with known answers
[
  {
    "MOLECULE": "CC1(C)C(=O)N(c2ccccc2)C(=O)N1c1nc2ccccc2[nH]1",
    "GI50": "> 100 µM (inactive)"
  },
  {
    "MOLECULE": "CC(C)(O)[C@@H]1CCC(C)([C@H]2[C@@H](O)CC3(C)C4CC(OC5OC(CO)C(O)C(O)C5O)C5C(C)(C)[C@@H](OC6OCC(O)C(O)C6O)CC[C@@]56C[C@@]46CC[C@]23C)O1 (stereo partly specified)",
    "GI50": "> 100 µM (inactive)"
  },
  {
    "MOLECULE": "CC(=O)CNC(=O)OC(C)(C)C",
    "GI50": "> 100 µM (inactive)"
  },
  {
    "MOLECULE": "C#CC1(O)c2ccccc2C(=O)c2ccccc21",
    "GI50": "35.9 µM (inactive)"
  },
  {
    "MOLECULE": "CC(=O)c1ccc(NC(=O)C(=O)C(C(=O)/C=C/c2ccccc2)C2OC(=O)c3ccccc32)cc1 (stereo unspecified)",
    "GI50": "> 100 µM (inactive)"
  }
]

INPUT: Using the record for CC(=O)OC1=CC2(OC(C)=O)CC(C)(C)C1C1C(=O)C=CC(=O)C12 (stereo unspecified) , report its GI50.
OUTPUT: > 100 µM (inactive)

====

# System: SNB-75
# PROTOCOL_DETAILS: NCI tumour cell line growth inhibition, 48 h
Active and inactive are the calls of the source. Rule as the data show it: active = GI50 up to about 1.1 µM and inactive = higher.
Consider the following molecules; for each one, report its GI50.

For orientation, consider the following solved cases.
[
  {
    "MOLECULE": "O=C(Cc1ccccc1)NN1C(=O)C(Cl)C1c1cc(Br)cc(Br)c1O (configuration not stated)",
    "MEAS_VALUE": "16.2 µM (inactive)"
  },
  {
    "MOLECULE": "CN(C)c1ccc(/C=C(\\NC(=O)c2ccccc2)C2=NC(CCC(=O)O)C(=O)O2)cc1 (configuration not stated)",
    "MEAS_VALUE": "> 50 µM (inactive)"
  },
  {
    "MOLECULE": "CC1(C)C(=O)N(c2ccccc2)C(=O)N1c1nc2ccccc2[nH]1",
    "MEAS_VALUE": "> 100 µM (inactive)"
  },
  {
    "MOLECULE": "c1ccc2cc3c(cc2c1)OP1(Oc2cccc4cccnc24)(O3)Oc2cc3ccccc3cc2O1",
    "MEAS_VALUE": "18.6 µM (inactive)"
  },
  {
    "MOLECULE": "CC(=O)OC12c3ccccc3-c3ccccc3C1C1C(=O)N(C)C(=O)C12Cl (configuration not stated)",
    "MEAS_VALUE": "> 10 µM (inactive)"
  }
]

Hello, I would appreciate it if you could give GI50 for each entry below.
1. O=C(Oc1cccc(Cl)c1)c1cc2cc(CCl)ccc2oc1=O
2. CC[C@]12C=CCN3CCC4(c5cc(/N=N/c6ccc([N+](=O)[O-])cc6)c(OC)cc5N(C)[C@H]4[C@@](O)(C(=O)OC)[C@@H]1OC(C)=O)[C@@H]32 (some centres not stated)
3. CC(=O)N(CCc1ccccc1)C(C#N)c1ccc(OCCCCCCCCCCOc2ccc(C(C#N)N(CCc3ccccc3)C(C)=O)cc2)cc1 (configuration not stated)
4. COC(=O)C1CC23C=CCN4CC(C2C)C2(c5ccccc5NC12)C43 (configuration not stated)
5. ClCCN1CCC2(CC1)SSC1(CCN(CCCl)CC1)S2
6. CC(C)(C)OC(=O)CCCCCNC(=O)CCCCCNC(=O)CCC(CN(CC(=O)OCc1ccccc1)CC(=O)OCc1ccccc1)N(CC(=O)OCc1ccccc1)CC(=O)OCc1ccccc1 (configuration not stated)

OUTPUT:
1. 31.4 µM (inactive)
2. 9.48 µM (inactive)
3. 17.7 µM (inactive)
4. 87.7 µM (inactive)
5. 59.3 µM (inactive)
6. 20.2 µM (inactive)

INPUT: Requested field: GI50. Item: COc1cccc(N2C(=O)/C(=C\c3ccccc3)SC2c2cc(OC)c(OC)c(OC)c2)c1 (configuration not stated)
OUTPUT: 18 µM (inactive)
